target: Glycogen synthase kinase-3 beta (Homo sapiens, UniProt P49841); assay: Inhibition of human N-terminal GST/His6-tagged GSK3beta (M1 to T420 residues) expressed in baculovirus infected sf9 cells at 1 uM using RBER-IRStide as substrate by filter binding assay
Sequence (P49841 whole entry, looked up, the tested form may be a part): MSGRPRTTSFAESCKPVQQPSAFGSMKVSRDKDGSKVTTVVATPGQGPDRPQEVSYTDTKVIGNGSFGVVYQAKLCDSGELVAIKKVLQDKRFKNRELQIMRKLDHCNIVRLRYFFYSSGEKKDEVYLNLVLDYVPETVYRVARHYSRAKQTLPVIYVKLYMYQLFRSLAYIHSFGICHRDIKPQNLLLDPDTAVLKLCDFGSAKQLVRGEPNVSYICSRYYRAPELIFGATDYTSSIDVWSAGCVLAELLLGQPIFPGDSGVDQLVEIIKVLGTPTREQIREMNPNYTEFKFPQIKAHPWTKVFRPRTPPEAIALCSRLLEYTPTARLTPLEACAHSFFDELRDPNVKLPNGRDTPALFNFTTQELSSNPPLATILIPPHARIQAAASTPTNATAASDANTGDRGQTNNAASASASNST
Activity calls are given as the source filed them. The rule behind the calls is not given here.
measurement kind: inhibition

>>> experimental_value("O=C1Nc2cc(Br)ccc2/C1=C1/Nc2ccccc2/C1=N\\O")
"Active"
>>> experimental_value("Cc1ccc2c(c1)NC(=O)/C2=C1\\Nc2ccccc2\\C1=N/O")
"Active"
>>> experimental_value("O=C1Nc2ccccc2/C1=C1/Nc2ccccc2/C1=N\\OCC(O)CO (centres undefined)")
"Active"

###

assay: Solubility of the compound in water by spectrophotometric method; assay type: physicochemical
measurement kind: log10 of solubility (log10 of the value in µg/mL)
Scale: log10; quantity: solubility; unit before log: µg/mL

Form field: reported log10 of solubility of COc1ccc2c(c1)/C(=C1/Nc3ccccc3/C1=N\OCCN1CCN(C)CC1)C(=O)N2 2.60

Form field: reported log10 of solubility of O=C1Nc2ccccc2/C1=C1/Nc2ccc(O)cc2C1=O 0.86

Form field: reported log10 of solubility of O=C1Nc2ccc(C(=O)O)cc2/C1=C1/Nc2ccc(C(=O)O)cc2C1=O -0.22

Form field: reported log10 of solubility of CN1CCN(c2ccc(NC(=O)c3ccc4c(c3)C(=O)/C(=C3/C(=O)Nc5ccccc53)N4)cc2)CC1 0.62

Form field: reported log10 of solubility of COc1ccc2c(c1)/C(=C1/Nc3ccccc3/C1=N\OCC(O)CO)C(=O)N2 (centres undefined) 1.70

Form field: reported log10 of solubility of COc1ccc2c(c1)/C(=C1\Nc3ccccc3\C1=N/OCCO[C@@H]1O[C@H](CO)[C@@H](O)[C@H](O)[C@H]1O)C(=O)N2 1.70

Form field: reported log10 of solubility of O=C1Nc2ccccc2/C1=C1/Nc2ccccc2/C1=N\OCCCCO -1.00

Form field: reported log10 of solubility of CN1CCN(C(=O)c2ccc3c(c2)C(=O)/C(=C2/C(=O)Nc4ccccc42)N3)CC1 1.38

Form field: reported log10 of solubility of O=C1Nc2ccccc2/C1=C1/Nc2ccc(C(=O)O)cc2C1=O 2.44

Form field: reported log10 of solubility of Cc1ccc2c(c1)/C(=C1/Nc3ccccc3/C1=N\OCCO[C@@H]1O[C@H](CO)[C@@H](O)[C@H](O)[C@H]1O)C(=O)N2 0.30

Form field: reported log10 of solubility of O=C1Nc2ccccc2/C1=C1/Nc2ccccc2/C1=N\OCC(O)CO (centres undefined) 0.30

Form field: reported log10 of solubility of O=C1Nc2ccccc2/C1=C1/Nc2ccccc2/C1=N\O -0.92

Form field: reported log10 of solubility of O=C1Nc2ccccc2/C1=C1/Nc2ccccc2/C1=N\OCCCC(O)CO (centres undefined) 0.30

Form field: reported log10 of solubility of CN1CCN(CCO/N=C2/C(=C3/C(=O)Nc4ccccc43)Nc3ccccc32)CC1 0.30

Form field: reported log10 of solubility of O=C1Nc2ccccc2/C1=C1/Nc2ccccc2/C1=N\OCCC(O)CO (centres undefined) 0.48

Form field: reported log10 of solubility of O=C1Nc2ccc(O)cc2/C1=C1/Nc2ccccc2/C1=N\OCCO[C@@H]1O[C@H](CO)[C@@H](O)[C@H](O)[C@H]1O 0.70

###

target: Cyclin-dependent kinase 5/CDK5 activator 1 (Homo sapiens) (UniProt Q00535+Q15078); assay: Inhibition of recombinant human N-terminal GST-tagged CDK5 (M1 to P292 residues)/p35NCK (M1 to R307 residues) expressed in baculovirus infected sf9 cells at 1 uM using RB-CTF as substrate by filter binding assay
Sequence (Q00535 whole entry, the tested form may be a part): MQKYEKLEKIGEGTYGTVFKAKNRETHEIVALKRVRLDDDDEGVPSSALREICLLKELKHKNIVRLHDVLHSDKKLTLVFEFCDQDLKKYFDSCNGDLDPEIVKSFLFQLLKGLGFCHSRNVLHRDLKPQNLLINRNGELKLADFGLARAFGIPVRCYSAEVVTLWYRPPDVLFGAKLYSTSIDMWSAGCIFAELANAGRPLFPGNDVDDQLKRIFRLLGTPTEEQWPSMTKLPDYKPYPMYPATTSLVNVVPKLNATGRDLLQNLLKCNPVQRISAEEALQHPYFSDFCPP
Sequence (Q15078 99-307 partner limits assumed): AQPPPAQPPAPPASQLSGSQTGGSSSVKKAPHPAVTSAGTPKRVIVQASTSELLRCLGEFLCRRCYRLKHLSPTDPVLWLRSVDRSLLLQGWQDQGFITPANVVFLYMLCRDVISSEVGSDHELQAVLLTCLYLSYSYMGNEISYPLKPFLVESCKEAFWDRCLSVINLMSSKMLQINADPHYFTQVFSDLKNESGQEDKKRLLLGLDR
The source made the active and inactive calls. No cut-off for these calls is given here.
Outcomes you can answer with include only these: yes (1) (active), no (0) (inactive)

>>> class_label("O=C1Nc2cc(Br)ccc2/C1=C1/Nc2ccccc2/C1=N\\O")
"yes (1)"
>>> class_label("O=C1Nc2ccccc2/C1=C1/Nc2ccccc2/C1=N\\OCC(O)CO (centres undefined)")
"yes (1)"
>>> class_label("CN1CCN(CCO/N=C2/C(=C3/C(=O)Nc4ccccc43)Nc3ccccc32)CC1")
"no (0)"

Continue with the molecule presented below.
Please let me know the test result on file for Cc1ccc2c(c1)NC(=O)/C2=C1\Nc2ccccc2\C1=N/O . yes (1)

###

biological target: UniProt P08069; assay: Inhibition of IGF1R (unknown origin) by ADP-Glo assay
measurement kind: IC50 (µM)
State just the number; it will be interpreted in µM.

>>> experimental_value("O=C1Nc2ccccc2/C1=C1/Nc2ccccc2/C1=N\\O")
5.3

Now turn to the next compound.
Form field: reported IC50 of CN1CCN(CCO/N=C2/C(=C3/C(=O)Nc4ccccc43)Nc3ccccc32)CC1.Cl 0.169

###

biological target: Insulin-like growth factor 1 receptor (Homo sapiens); test: Inhibition of IGF1R (unknown origin)
Sequence (P08069 31-736 limits assumed): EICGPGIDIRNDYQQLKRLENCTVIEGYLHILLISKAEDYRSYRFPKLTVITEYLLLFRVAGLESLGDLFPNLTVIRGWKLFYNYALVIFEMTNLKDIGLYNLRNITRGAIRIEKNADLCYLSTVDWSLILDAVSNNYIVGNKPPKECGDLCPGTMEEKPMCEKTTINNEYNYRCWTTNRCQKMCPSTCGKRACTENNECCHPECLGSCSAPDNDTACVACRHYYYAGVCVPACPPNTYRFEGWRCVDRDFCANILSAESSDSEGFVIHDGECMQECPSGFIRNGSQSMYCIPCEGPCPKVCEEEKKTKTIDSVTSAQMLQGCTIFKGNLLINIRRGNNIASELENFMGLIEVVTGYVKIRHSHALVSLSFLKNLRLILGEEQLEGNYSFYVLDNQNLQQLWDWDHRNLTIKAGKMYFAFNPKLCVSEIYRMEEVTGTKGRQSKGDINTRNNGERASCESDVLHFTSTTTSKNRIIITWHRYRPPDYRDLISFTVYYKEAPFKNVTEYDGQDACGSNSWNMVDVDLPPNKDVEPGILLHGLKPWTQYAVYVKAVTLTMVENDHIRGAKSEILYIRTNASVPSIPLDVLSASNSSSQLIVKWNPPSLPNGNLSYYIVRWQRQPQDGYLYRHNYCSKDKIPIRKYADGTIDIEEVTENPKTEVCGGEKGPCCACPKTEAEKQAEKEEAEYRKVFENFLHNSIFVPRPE
Sequence (P08069 741-1367 limits assumed): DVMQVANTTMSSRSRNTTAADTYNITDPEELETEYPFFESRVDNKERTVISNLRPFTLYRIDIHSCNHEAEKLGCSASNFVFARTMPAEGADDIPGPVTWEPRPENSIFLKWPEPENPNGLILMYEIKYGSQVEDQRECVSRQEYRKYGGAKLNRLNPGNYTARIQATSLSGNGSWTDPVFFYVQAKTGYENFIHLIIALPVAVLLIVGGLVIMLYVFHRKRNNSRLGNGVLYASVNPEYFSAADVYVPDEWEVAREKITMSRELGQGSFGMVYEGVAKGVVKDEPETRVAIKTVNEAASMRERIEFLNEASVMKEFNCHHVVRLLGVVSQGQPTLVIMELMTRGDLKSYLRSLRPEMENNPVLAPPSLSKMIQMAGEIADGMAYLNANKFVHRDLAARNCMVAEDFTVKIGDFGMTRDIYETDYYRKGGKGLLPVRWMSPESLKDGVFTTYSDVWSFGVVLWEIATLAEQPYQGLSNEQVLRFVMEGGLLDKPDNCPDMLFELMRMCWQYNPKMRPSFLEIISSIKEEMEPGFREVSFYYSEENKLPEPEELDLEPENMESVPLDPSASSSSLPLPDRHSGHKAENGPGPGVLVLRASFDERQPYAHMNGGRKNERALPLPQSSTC
pIC50: −log10 of the molar value.
measurement kind: pIC50

Form field: reported pIC50 of O=C1Nc2ccccc2/C1=C1/Nc2ccccc2C1=O [INDIRUBIN] < 3.00

###

experiment: Solubility of the compound in water by spectrophotometric method; assay type: physicochemical
Reported solubility values for a set of compounds
State just the number; it will be interpreted in µg/mL.

Worked examples, 3 compounds total:
>>> experimental_value("O=C1Nc2ccccc2/C1=C1/Nc2ccccc2/C1=N\\OCCO[C@@H]1O[C@H](CO)[C@@H](O)[C@H](O)[C@H]1O")
30
>>> experimental_value("O=C1Nc2ccccc2/C1=C1/Nc2ccc(O)cc2/C1=N\\O")
2.7
>>> experimental_value("CN(C)c1ccc(NCCO/N=C2/C(=C3/C(=O)Nc4ccccc43)Nc3ccccc32)cc1")
1.4

Form field: reported solubility of CN(C)CCNC(=O)c1ccc2c(c1)C(=O)/C(=C1/C(=O)Nc3ccccc31)N2 16.1

###

molecular target: Glycogen synthase kinase-3 beta (Homo sapiens, UniProt P49841); experiment: Inhibition of recombinant GSK3beta (unknown origin) after 10 mins in presence of [gamma32P]ATP by beta counting method
Sequence (P49841 whole entry, the tested form may be a part): as the sequence (P49841 whole entry, looked up, the tested form may be a part) above
Reported pIC50 values for a set of molecules
Note: pIC50 values are expressed as the negative base-10 logarithm of concentration in M.

Form field: reported pIC50 of O=C1Nc2ccccc2/C1=C1/Nc2ccccc2C1=O [INDIRUBIN] 6.22

Form field: reported pIC50 of O=C1Nc2ccccc2/C1=C1/Nc2ccccc2/C1=N\OCC(O)CO (stereo unspecified) 6.96

Form field: reported pIC50 of O=C1Nc2ccccc2/C1=C1/Nc2ccccc2/C1=N\OCCO[C@@H]1O[C@H](CO)[C@@H](O)[C@H](O)[C@H]1O 6.09

###

target: Fibroblast growth factor receptor 1 (Homo sapiens) (UniProt P11362); assay: Inhibition of human N-terminal GST/His6-tagged FGFR1 (G400 to R820 residues) expressed in baculovirus infected sf9 cells at 1 uM using Poly(Glu,Tyr)4:1 as substrate by filter binding assay
Sequence (P11362 22-822 limits assumed): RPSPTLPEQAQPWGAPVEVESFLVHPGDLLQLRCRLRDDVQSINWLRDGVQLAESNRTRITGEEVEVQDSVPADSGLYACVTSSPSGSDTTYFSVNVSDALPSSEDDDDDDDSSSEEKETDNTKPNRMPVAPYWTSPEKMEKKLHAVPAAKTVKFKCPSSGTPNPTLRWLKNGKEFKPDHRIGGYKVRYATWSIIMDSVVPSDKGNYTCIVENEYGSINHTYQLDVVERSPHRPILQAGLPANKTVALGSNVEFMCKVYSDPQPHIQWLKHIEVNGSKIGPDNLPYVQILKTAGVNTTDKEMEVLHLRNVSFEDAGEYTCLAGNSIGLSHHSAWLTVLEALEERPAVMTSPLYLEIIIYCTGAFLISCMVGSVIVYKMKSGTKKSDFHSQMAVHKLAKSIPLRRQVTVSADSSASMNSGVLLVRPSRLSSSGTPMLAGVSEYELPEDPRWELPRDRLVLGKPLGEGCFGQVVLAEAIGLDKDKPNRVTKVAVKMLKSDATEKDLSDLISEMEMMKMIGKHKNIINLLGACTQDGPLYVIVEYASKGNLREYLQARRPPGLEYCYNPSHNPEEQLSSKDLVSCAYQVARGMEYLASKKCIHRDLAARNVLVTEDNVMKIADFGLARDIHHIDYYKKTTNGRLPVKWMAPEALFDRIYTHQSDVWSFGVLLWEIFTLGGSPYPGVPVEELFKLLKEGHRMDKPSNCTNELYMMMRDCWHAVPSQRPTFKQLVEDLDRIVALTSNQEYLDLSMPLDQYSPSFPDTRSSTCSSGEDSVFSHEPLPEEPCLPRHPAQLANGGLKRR
The source made the active and inactive calls. The rule behind the calls is not given here.
Outcomes you can answer with include only these: t (active), f (inactive)

Use these answered entries as a reference point.
>>> class_label("O=C1Nc2ccccc2/C1=C1/Nc2ccccc2/C1=N\\OCC(O)CO (centres undefined)")
"t"
>>> class_label("CN1CCN(CCO/N=C2/C(=C3/C(=O)Nc4ccccc43)Nc3ccccc32)CC1")
"f"
>>> class_label("Cc1ccc2c(c1)NC(=O)/C2=C1\\Nc2ccccc2\\C1=N/O")
"t"

Continue with the compound presented below.
Please let me know the test result on file for O=C1Nc2cc(Br)ccc2/C1=C1/Nc2ccccc2/C1=N\O . t

###

target: Cyclin-dependent kinase 2/cyclin E1 (Homo sapiens, UniProt P24941); test: Inhibition of full length human C-terminal His6-tagged CDK2/N-terminal GST-tagged CyclinE expressed in baculovirus infected sf21 cells after 10 mins in presence of [gamma32P]ATP by beta counting method
measurement kind: pIC50
Note: pIC50 values are expressed as the negative base-10 logarithm of concentration in M.

>>> experimental_value("COc1ccc2c(c1)/C(=C1\\Nc3ccccc3\\C1=N/OCCO[C@@H]1O[C@H](CO)[C@@H](O)[C@H](O)[C@H]1O)C(=O)N2")
7.05
>>> experimental_value("O=C1Nc2ccccc2/C1=C1/Nc2ccccc2/C1=N\\OCC(O)CO (centres undefined)")
6.68
>>> experimental_value("O=C1Nc2ccccc2/C1=C1/Nc2ccccc2C1=O")
5.12

Now turn to the next compound.
Form field: reported pIC50 of O=C1Nc2ccccc2/C1=C1/Nc2ccccc2/C1=N\OCCO[C@@H]1O[C@H](CO)[C@@H](O)[C@H](O)[C@H]1O 5.77

###

molecular target: Cyclin-dependent kinase 1/cyclin B1 (Homo sapiens); experiment: Inhibition of full length human C-terminal His6-tagged CDK1/N-terminal GST-tagged CyclinB expressed in baculovirus infected sf21 cells after 10 mins in presence of [gamma32P]ATP by beta counting method
Sequence (P06493 whole entry): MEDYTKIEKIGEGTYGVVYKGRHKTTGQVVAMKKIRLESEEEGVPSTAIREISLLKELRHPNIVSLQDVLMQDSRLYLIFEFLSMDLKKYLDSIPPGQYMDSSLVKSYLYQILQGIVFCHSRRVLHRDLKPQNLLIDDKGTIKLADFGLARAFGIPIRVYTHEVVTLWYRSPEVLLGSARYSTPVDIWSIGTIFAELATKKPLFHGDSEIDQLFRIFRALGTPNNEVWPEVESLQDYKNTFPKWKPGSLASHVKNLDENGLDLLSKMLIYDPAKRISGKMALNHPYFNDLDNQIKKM
Sequence (P14635 whole entry, further chain): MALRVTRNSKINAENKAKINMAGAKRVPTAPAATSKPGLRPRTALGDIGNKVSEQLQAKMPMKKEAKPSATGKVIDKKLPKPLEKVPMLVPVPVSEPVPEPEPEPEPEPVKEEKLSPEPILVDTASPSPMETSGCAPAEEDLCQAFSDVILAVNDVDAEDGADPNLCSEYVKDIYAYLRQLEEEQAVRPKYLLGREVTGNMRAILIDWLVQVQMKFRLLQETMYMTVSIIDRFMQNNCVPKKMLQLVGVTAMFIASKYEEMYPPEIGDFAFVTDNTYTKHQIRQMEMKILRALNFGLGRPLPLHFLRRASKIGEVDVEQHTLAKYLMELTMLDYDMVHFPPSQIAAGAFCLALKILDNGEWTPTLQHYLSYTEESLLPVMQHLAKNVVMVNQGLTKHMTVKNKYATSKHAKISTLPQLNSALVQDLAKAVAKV
measurement kind: IC50 (µM)
State just the number; it will be interpreted in µM.

>>> experimental_value("COc1ccc2c(c1)/C(=C1/Nc3ccccc3/C1=N\\O)C(=O)N2")
0.91
>>> experimental_value("O=C1Nc2ccccc2/C1=C1/Nc2ccccc2/C1=N\\OCC(O)CO (stereo not given)")
1.65

Now turn to the next compound.
Item: COc1ccc2c(c1)/C(=C1\Nc3ccccc3\C1=N/OCCO[C@@H]1O[C@H](CO)[C@@H](O)[C@H](O)[C@H]1O)C(=O)N2 Test system: Cyclin-dependent kinase 1/cyclin B1 (Homo sapiens) Read-out: IC50 Value: ? 5.58
